# testTarget: EGFR T790M/L858R (NCI-H1975 cells) (Homo sapiens, UniProt P00533, L858R/T790M)
# Construct: NCI-H1975 (harboring EGFR heterozygous T790M/L858R mutations); host or cells: NCI-H1975
# Sequence (P00533 25-1210 T790M/L858R): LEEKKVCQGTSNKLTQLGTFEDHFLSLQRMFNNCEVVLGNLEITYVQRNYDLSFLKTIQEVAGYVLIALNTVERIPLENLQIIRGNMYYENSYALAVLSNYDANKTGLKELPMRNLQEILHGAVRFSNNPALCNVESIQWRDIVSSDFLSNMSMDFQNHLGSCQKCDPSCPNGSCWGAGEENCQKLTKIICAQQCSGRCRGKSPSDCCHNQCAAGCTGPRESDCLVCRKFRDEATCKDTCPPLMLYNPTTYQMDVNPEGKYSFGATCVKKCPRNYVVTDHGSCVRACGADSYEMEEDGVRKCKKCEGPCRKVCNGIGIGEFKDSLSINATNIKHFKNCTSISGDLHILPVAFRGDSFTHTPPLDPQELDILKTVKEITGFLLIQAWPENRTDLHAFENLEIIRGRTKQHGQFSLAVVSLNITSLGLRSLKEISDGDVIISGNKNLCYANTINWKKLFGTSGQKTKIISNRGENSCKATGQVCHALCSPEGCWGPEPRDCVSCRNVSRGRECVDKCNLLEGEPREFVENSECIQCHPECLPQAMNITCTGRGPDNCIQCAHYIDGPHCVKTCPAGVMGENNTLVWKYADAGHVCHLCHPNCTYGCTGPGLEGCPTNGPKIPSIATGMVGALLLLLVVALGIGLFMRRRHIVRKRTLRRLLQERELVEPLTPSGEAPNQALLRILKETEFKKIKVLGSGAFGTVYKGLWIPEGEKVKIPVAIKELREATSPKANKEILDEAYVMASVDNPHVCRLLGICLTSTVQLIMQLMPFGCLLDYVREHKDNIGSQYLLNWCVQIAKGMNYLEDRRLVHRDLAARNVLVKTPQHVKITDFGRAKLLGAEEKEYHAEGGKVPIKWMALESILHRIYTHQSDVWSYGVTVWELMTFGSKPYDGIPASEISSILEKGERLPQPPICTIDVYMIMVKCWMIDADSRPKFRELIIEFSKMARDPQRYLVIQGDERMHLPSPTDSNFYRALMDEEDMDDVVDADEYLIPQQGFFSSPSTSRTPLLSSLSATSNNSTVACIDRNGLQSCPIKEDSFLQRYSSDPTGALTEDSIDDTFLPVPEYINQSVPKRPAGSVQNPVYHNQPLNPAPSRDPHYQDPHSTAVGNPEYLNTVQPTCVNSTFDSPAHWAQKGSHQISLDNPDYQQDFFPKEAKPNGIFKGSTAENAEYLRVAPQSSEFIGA
# experimentSummary: EGFR (L858R) degradation analysis, Total EGFR (L858R) HTRF, NCI-H1975 cells
# Type: cell-based
# measurementConditions: 6 hours
Give measured DC50 for each item. Keep answers brief.
Write the number in µM without appending the unit.

Reported DC50 (EGFR T790M/L858R (NCI-H1975 cells) (Homo sapiens, UniProt P00533, L858R/T790M)) for entry O=C1NC(=O)C2(Nc3ccc(C4CCN(CC(=O)N5CCC(Oc6ccc(-c7cc(F)c8c(c7)C(=O)N(C(C(=O)Nc7nccs7)c7ncn9c7CCC9)C8)cc6)CC5)CC4)cc3)CC1C2 (stereo not drawn) is 0.052

Value (DC50, EGFR T790M/L858R (NCI-H1975 cells) (Homo sapiens, UniProt P00533, L858R/T790M)) for record O=C1CCC(Nc2ccc(C3CCN(CC(=O)N4CCN(c5ccc(-c6cc(F)c7c(c6)C(=O)N(C(C(=O)Nc6nccs6)c6ncn8c6C[C@@H](F)C8)C7)cc5)CC4)CC3)cc2)C(=O)N1 (mixture of isomers) = 0.013

Readout DC50 for O=C1CCC(Nc2ccc(C3CCN(CC(=O)N4CCC(c5ccc(-c6cc(F)c7c(c6)C(=O)N(C(C(=O)Nc6nccs6)c6ncn8c6CCC8)C7)cc5)CC4)CC3)cc2)C(=O)N1 (stereo not drawn) , test system EGFR T790M/L858R (NCI-H1975 cells) (Homo sapiens, UniProt P00533, L858R/T790M), was 0.031
